Source: patent EP0973746B1

What log10(IC50) was measured for each of the following?
Tested on: MCF7
experiment description: Inhibition of cancer cell growth as measured by cell number, MCF7;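 note: MCF7 was included as a line with little or no EGFR or HER2/neu expression, in contrast to the receptor-overexpressing lines of the panel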
Format: cell-based, human
condition description: Homo sapiens, MCF7, 48 h, read-out: IC50 MCF7, cell number, Sulforhodamine B, 48 hours exposure; Table 8
Would you kindly interpret these values as log10 of IC50 expressed in µg/mL?

Data point: N#Cc1cnc2ccc(N)cc2c1Nc1ccc(Sc2ccccc2)c(Cl)c1 ; log10(IC50) = 0.74

Data point: C#Cc1cccc(Nc2c(C#N)cnc3ccc(NC(=O)C=C)cc23)c1 ; log10(IC50) = 0.76

Data point: N#Cc1cccc(Nc2c(C#N)cnc3ccc(N)cc23)c1 ; log10(IC50) = 1.21

Data point: N#Cc1cnc2ccc([N+](=O)[O-])cc2c1Nc1ccc(F)c(F)c1 ; log10(IC50) = 0.88

Data point: C#Cc1cccc(Nc2c(C#N)cnc3ccc(NC(=O)C#CC)cc23)c1 ; log10(IC50) = 1.76

Data point: C=CC(=O)Nc1ccc2ncc(C#N)c(Nc3cccc(OC)c3)c2c1 ; log10(IC50) = 0.55

Data point: COc1cc2ncc(C#N)c(Nc3cccc(F)c3)c2cc1OC ; log10(IC50) = 1.61

* * *

system under test: His-tagged cytoplasmic domain of EGFR (Homo sapiens)
Construct: containing the EGFR cDNA encoding amino acids 645 - 1186 preceded by Met-Ala-(His)6; made in house; host or cells: Sf9 cells, recombinant baculovirus vHcEGFR52
Sequence (P00533 669-1210): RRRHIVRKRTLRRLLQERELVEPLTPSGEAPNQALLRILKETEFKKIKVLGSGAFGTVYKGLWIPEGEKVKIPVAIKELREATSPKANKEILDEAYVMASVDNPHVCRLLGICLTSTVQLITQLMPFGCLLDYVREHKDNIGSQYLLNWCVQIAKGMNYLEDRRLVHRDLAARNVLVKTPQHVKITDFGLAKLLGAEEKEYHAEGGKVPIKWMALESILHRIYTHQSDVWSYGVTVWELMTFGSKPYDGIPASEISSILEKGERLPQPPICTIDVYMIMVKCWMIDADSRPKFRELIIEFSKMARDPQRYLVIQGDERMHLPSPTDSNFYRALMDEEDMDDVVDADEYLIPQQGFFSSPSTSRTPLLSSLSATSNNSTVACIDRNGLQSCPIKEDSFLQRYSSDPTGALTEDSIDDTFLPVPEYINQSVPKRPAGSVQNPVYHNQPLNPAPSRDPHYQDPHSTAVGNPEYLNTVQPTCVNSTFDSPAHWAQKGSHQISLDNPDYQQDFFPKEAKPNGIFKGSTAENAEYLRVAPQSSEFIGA
experiment description: Inhibition of Epidermal Growth Factor Receptor Kinase (EGF-R) using recombinant enzyme;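 note: radiometric kinase assay measuring radiolabeled phosphate transfer from ATP onto the peptide tyrosine by scintillation counting, control is reaction without compound, background subtracted, IC50 from dose-response curve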
Type: biochemical
condition description: recombinant enzyme; RR-SRC peptide; average of the number of tests; read-out: IC50
Flag rule - IC50 less than 100 nM flags met; the remaining entries get not met.

Below 100 nM on IC50? Entry CC#CC(=O)Nc1ccc2ncc(C#N)c(Nc3ccc(F)c(Cl)c3)c2c1 met

Below 100 nM on IC50? Entry CCOc1cc2ncc(C#N)c(NCc3ccc(OC)c(OC)c3)c2cc1OCC not met

Below 100 nM on IC50? Entry N#Cc1cnc2ccc(NC(=O)C#CCN3CCCCC3)cc2c1Nc1cccc(Br)c1 met

Below 100 nM on IC50? Entry CC#CC(=O)Nc1ccc2ncc(C#N)c(Nc3cccc(C)c3)c2c1 not met

Below 100 nM on IC50? Entry COc1cc2ncc(C#N)c(Nc3ccc(F)c(Br)c3)c2cc1NC(=O)C=CCN(C)C met

Below 100 nM on IC50? Entry C=CC(=O)Nc1ccc2ncc(C#N)c(Nc3cccc(F)c3)c2c1 met

Below 100 nM on IC50? Entry C=CC(=O)Nc1ccc2ncc(C#N)c(Nc3ccc(F)c(Cl)c3)c2c1 met

* * *

system under test: recombinant human MEK 1 (MAPKK) and recombinant human ERK2 (MAPK)
experiment description: Mitogen Activated Protein Kinase (MAPK) assay, two component coupled MEK 1 / ERK2;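 note: MEK 1-activated ERK2 phosphorylates MBP or Myc peptide with 33P-ATP, filter capture and scintillation counting, inhibitor preincubated with ERK2 30 min at 0 °C, inhibition relative to uninhibited control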
condition description: separate entries for the same compound = evaluated more than one time
What IC50 was measured for each of the following?
Form entry: value (µM) — number only.

Data point: N#Cc1cnc2ccc(NCCCN3CCCC3)cc2c1Nc1cccc(Br)c1 ; IC50 = 18

Data point: COc1cc2ncc(C#N)c(Nc3cccc(NC(C)=O)c3)c2cc1OC ; IC50 = 20

Data point: COc1ccc2ncc(C#N)c(Nc3ccc(C)c(O)c3)c2c1 ; IC50 = 4

Data point: COc1cc2ncc(C#N)c(Nc3cccc(N)c3)c2cc1OC ; IC50 = 3

Data point: N#Cc1cccc(Nc2c(C#N)cnc3ccc(NC(=O)C#CCN4CCCCC4)cc23)c1 ; IC50 = 55

Data point: N#Cc1cnc2ccc(NC(=O)C=CCN3CCOCC3)cc2c1Nc1ccc(F)c(Cl)c1 ; IC50 = 80
